- system.tested: GlcNAc(b1-3)[GlcNAc(b1-6)]Gal(b1-4)GlcNAc
- assay.comment: glycan array binding signal (z-score within array); higher = stronger binding
- details: glycan notation: IUPAC condensed, linker removed
The sample as a whole holds a higher share of the strongest signals than the screen did.
Short version: glycan array binding signal (z-score) at least -0.5 is Criterion met, less is Criterion not met.

{"binder": "Gal 12 (Homo sapiens), Q96DT0 (protein) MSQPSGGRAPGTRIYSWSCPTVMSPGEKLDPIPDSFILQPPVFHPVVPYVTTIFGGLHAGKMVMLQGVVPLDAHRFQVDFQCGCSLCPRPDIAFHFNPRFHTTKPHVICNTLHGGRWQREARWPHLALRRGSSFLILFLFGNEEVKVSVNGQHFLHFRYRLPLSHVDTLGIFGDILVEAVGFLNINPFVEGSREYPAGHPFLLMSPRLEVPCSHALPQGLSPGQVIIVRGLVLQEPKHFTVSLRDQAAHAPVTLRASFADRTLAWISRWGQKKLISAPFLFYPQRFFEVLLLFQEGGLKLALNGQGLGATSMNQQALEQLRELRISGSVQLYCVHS", "group": "Criterion not met"}
{"binder": "CLEC9a (Mus musculus), Q8BRU4 (protein) MHAEEIYTSLQWDIPTSEASQKCQSPSKCSGAWCVVTMISCVVCMGLLATSIFLGIKFFQVSSLVLEQQERLIQQDTALVNLTQWQRKYTLEYCQALLQRSLHSGSDCSPCPHNWIQNGKSCYYVFERWEMWNISKKSCLKEGASLFQIDSKEEMEFISSIGKLKGGNKYWVGVFQDGISGSWFWEDGSSPLSDLLPAERQRSAGQICGYLKDSTLISDKCDSWKYFICEKKAFGSCI", "group": "Criterion not met"}
{"binder": "LlpB (Pseudomonas fluorescens) (protein) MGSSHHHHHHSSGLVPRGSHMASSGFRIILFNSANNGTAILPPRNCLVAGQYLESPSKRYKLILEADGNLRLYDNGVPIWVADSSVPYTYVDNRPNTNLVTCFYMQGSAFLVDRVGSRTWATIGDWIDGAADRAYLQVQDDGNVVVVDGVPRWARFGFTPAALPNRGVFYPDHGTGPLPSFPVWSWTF", "group": "Criterion met"}
{"binder": "CREG (Mus musculus), O88668 (protein) MAARAPELARSLLAALLAPALVALLVSPASGRGGRDHGDWDVDRRLPPLPPREDGPRVARFVTHVSDWGSLATISTIKEVRGWPFADIISISDGPPGEGTGEPYMYLSPLQQAVSDLQENPEATLTMSLAQTVYCRNHGFDPQSPLCVHIMMSGTVTKVNKTEEDYARDSLFVRHPEMKHWPSSHNWFFAKLKISRIWVLDYFGGPKVVTPEEYFNVTLQ", "group": "Criterion not met"}
{"binder": "XL-35 (Xenopus laevis) (protein) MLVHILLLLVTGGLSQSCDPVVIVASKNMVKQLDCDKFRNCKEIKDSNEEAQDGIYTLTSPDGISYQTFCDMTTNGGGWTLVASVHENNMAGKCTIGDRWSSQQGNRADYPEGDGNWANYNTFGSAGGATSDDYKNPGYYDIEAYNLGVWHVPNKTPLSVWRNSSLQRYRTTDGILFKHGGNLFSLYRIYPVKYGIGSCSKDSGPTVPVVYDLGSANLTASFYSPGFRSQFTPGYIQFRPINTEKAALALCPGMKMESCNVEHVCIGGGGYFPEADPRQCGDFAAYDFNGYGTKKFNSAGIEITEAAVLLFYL", "group": "Criterion met"}
